Test system: Wnt5a (protein binding on small-molecule microarray)
methodNotes: Wnt5a binders on small-molecule microarray, primary screen, biophysical, 635/667 nm fluorescence (AID 1142);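 also: fluorescence read at 667 nm with signal to noise per printed feature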
conditionLabel: 635 nm fluorescence, higher = more signal
reportedProperty: composite z-score
Output spec: single numeric token, no unit.

What value of measured composite z-score is listed for COc1ccc(C(O)C2C=CC3C(=O)N(C)C(=O)C3N2N2CCCCC2)cc1 (centres undefined) ? 0.345

Reported composite z-score for CC(C)CNC(=O)[C@@]1(c2ccc([N+](=O)[O-])cc2)CC(=O)N(C2CCCCC2)[C@@H]1c1ccc(CO)cc1I : what is it? -0.067

Any idea what its composite z-score is? The molecule is CCOC(=O)[C@H]1C/C=C/C[C@H](C(=O)OCC)C(=O)O[C@H]2[C@@H](OC)O[C@H](CO)[C@@H](OC(=O)CCc3ccccc3)[C@@H]2OC1=O -0.581

Param item = CCOc1cc(C(O)C2C=CC3C(=O)N(C)C(=O)C3N2N2CCCCC2)ccc1O (centres undefined) ; retrieve measured composite z-score. 0.194

Ref: PubChem BioAssay
